Would you kindly list MIC for each of these compounds?
System: E. coli AG100A
Protocol details: microbe, parasite or virus in culture
Type: cell-based
Conditions used: Escherichia coli, read-out: MIC E. coli AG100A

For CCN1C[C@H](C)N(C(=O)NC(C(=O)N[C@H]2Cc3ccc(F)c(C(=O)O)c3OB2O)c2ccc(O)c(O)c2Cl)C(=O)C1=O (stereo partly shown) [Example 206] the compound record lists MIC as < 0.25 µg/mL

Summary for this compound, CCN1CCN(C(=O)N[C@@H](C(=O)N[C@H]2Cc3cccc(C(=O)O)c3OB2O)c2ccc(O)c(O)c2)C(=O)C1=O [Example 39] : MIC is 2 to 4 µg/mL

Given item CCN1CCN(C(=O)NC(C(=O)N[C@H]2Cc3cccc(C(=O)O)c3OB2O)c2ccc(O)c(O)c2)C(=O)C1=O (stereo partly shown) [Example 22] , the value recorded as its MIC is 2 to 4 µg/mL

Per the records, this compound ( CCN1CCN(C(=O)NC(C(=O)N[C@H]2Cc3cccc(C(=O)O)c3OB2O)c2ccc(O)c(S(N)(=O)=O)c2)C(=O)C1=O (stereo partly shown) [Example 143] ) has MIC equal to 2 to 4 µg/mL

Noted for CS(=O)(=O)N1CCN(C(=O)NC(C(=O)N[C@H]2Cc3cccc(C(=O)O)c3OB2O)c2ccc(O)c(O)c2Cl)C1=O (stereo partly shown) [Example 58] : its MIC reads 8 to 16 µg/mL

Consider CCN1CCN(C(=O)NC(C(=O)N[C@H]2Cc3cc(F)c(F)c(C(=O)O)c3OB2O)c2ccc(O)c(O)c2Cl)C(=O)C1=O (stereo partly shown) [Example 180] . Its measured MIC is 0.5 to 1 µg/mL

get_value(item= O=C(O)c1cccc2c1OB(O)[C@@H](NC(=O)C(NC(=O)N1CCN(CCF)C(=O)C1=O)c1ccc(S(=O)(=O)NCCO)cc1)C2 (stereo partly shown) [Example 213] , readout=MIC) returns 8 to 16 µg/mL

Field MIC (entry CCN1C[C@H](CO)N(C(=O)NC(C(=O)N[C@H]2Cc3ccc(F)c(C(=O)O)c3OB2O)c2ccc(O)c(O)c2Cl)C(=O)C1=O (stereo partly shown) [Example 237] ) reads < 0.25 µg/mL

The recorded MIC for entry CCN1CCN(C(=O)N[C@H](C(=O)N[C@H]2Cc3cccc(C(=O)O)c3OB2O)c2ccc(O)c(F)c2)C(=O)C1=O [Example 155] equals 8 to 16 µg/mL

CCN1CCN(C(=O)NC(C(=O)N[C@H]2Cc3ccc(Cl)c(C(=O)O)c3OB2O)c2ncc(O)cc2F)C(=O)C1=O (stereo partly shown) [Example 216] has a reported MIC of 8 to 16 µg/mL

Record CCN1CCN(C(=O)NC(C(=O)N[C@H]2Cc3cccc(C(=O)O)c3OB2O)c2ncc(N)cc2F)C(=O)C1=O (stereo partly shown) [Example 214] . Reported MIC: 2 to 4 µg/mL

Just so you know, measured MIC for CCN1CCN(C(=O)N[C@@H](C(=O)N[C@H]2Cc3ccc(F)c(C(=O)O)c3OB2O)[C@@H](C)O)C(=O)C1=O [Example 110] came out at 8 to 16 µg/mL

// MIC lookup, compound = CCN1CCN(C(=O)N[C@@H](C(=O)N[C@H]2Cc3ccc(F)c(C(=O)O)c3OB2O)c2c(F)cc(O)c(O)c2Cl)C(=O)C1=O [Example 251] , result: 0.5 to 1 µg/mL

Sample CCCN1CCN(C(=O)NC(C(=O)N[C@H]2Cc3ccc(F)c(C(=O)O)c3OB2O)c2ccc(O)c(O)c2Cl)C(=O)C1=O (stereo partly shown) [Example 125] ; MIC observed: 2 to 4 µg/mL

Please fill in: MIC reported for NS(=O)(=O)c1ccc(C(NC(=O)N2CCN(CCF)C(=O)C2=O)C(=O)N[C@H]2Cc3cccc(C(=O)O)c3OB2O)c(F)c1 (stereo partly shown) [Example 204] = 2 to 4 µg/mL

MIC measured on O=C(O)c1c(F)ccc2c1OB(O)[C@@H](NC(=O)C(NC(=O)N1CCN(CCF)C(=O)C1=O)c1ccc(O)c(O)c1Cl)C2 (stereo partly shown) [Example 131] = 2 to 4 µg/mL

The reported value for CCN1CC(C)(C)N(C(=O)NC(C(=O)N[C@H]2Cc3cccc(C(=O)O)c3OB2O)c2ncc(O)cc2F)C(=O)C1=O (stereo partly shown) [Example 245] in terms of MIC is 32 to 64 µg/mL

// recorded MIC for CCN1CCN(C(=O)N[C@@H](C(=O)N[C@H]2Cc3cccc(C(=O)O)c3OB2O)c2ccc(S(N)(=O)=O)c(OC)c2)C(=O)C1=O [Example 169] : 8 to 16 µg/mL

The compound listed as C[C@H]1CN(CCN)C(=O)C(=O)N1C(=O)NC(C(=O)N[C@H]1Cc2cccc(C(=O)O)c2OB1O)c1ccc(O)c(O)c1Cl (stereo partly shown) [Example 248] has a reported MIC of 0.5 to 1 µg/mL

CC(=O)NCCN1CCN(C(=O)NC(C(=O)N[C@H]2Cc3cccc(C(=O)O)c3OB2O)c2ccc(O)c(O)c2Cl)C(=O)C1=O (stereo partly shown) [Example 228] has a reported MIC of 0.5 to 1 µg/mL

Briefly, MIC measured for CCN1CCN(C(=O)NC(C(=O)N[C@H]2Cc3cccc(C(=O)O)c3OB2O)c2ccc(O)c(O)c2F)C(=O)C1=O (stereo partly shown) [Example 70] : 0.5 to 1 µg/mL

The measured MIC associated with O=C(O)c1cccc2c1OB(O)[C@@H](NC(=O)C(NC(=O)N1CCN(CCF)C(=O)C1=O)c1ccc(O)cn1)C2 (stereo partly shown) [Example 99] reads 2 to 4 µg/mL

Value of measured MIC for the entry NS(=O)(=O)c1ccc([C@@H](NC(=O)N2CCN(CCF)C(=O)C2=O)C(=O)N[C@H]2Cc3cccc(C(=O)O)c3OB2O)cc1O [Example 170] : 2 to 4 µg/mL

The compound O=C(O)c1cccc2c1OB(O)[C@@H](NC(=O)C(NC(=O)N1C[C@@H]3CCCN3C(=O)C1=O)c1ccc(O)c(O)c1Cl)C2 (stereo partly shown) [Example 222] showed MIC equal to 32 to 64 µg/mL

In plain terms, CCN1CCN(C(=O)NC(C(=O)N[C@H]2Cc3c(F)cc(F)c(C(=O)O)c3OB2O)c2ccc(O)c(O)c2Cl)C(=O)C1=O (stereo partly shown) [Example 185] has a documented MIC of 2 to 4 µg/mL

----------
Test system: K. pneumoniae 848844
Protocol details: microbe, parasite or virus in culture
Format: cell-based, Klebsiella pneumoniae
Conditions used: Klebsiella pneumoniae; K. pneumoniae 848844 producing SHV-11 and KPC-2; read-out: MIC K. pneumoniae 848844
Description: To determine the ability of test compounds to potentiate the inhibition of the growth of bacterial strains, classic cell based broth microdilution minimum inhibitory concentration (MIC) assays were employed. […] Briefly, cryo-preserved bacterial cultures of challenge strains are streaked for isolation on appropriate agar medium, in this case Mueller Hinton II agar. […] The MIC values are read visually as the lowest concentration well with no bacterial growth.
Task for the reader: assign each of the following compounds its reported MIC.

MIC for CCN1CCN(C(=O)NC(C(=O)N[C@H]2Cc3ccc(F)c(C(=O)O)c3OB2O)c2cccnc2)C(=O)C1=O (stereo partly drawn) is > 128 µg/mL

# MIC of CCN1CCN(C(=O)NC(C(=O)N[C@H]2Cc3ccc(Cl)c(C(=O)O)c3OB2O)c2ncc(O)cc2F)C(=O)C1=O (stereo partly drawn) = 32 to 64 µg/mL

Per the record, CNCCN1CCN(C(=O)N[C@@H](C(=O)N[C@H]2Cc3ccc(F)c(C(=O)O)c3OB2O)c2ccc(O)c(O)c2Cl)C(=O)C1=O has MIC of 0.5 to 1 µg/mL

Lab note: NCCCN1CCN(C(=O)N[C@@H](C(=O)N[C@H]2Cc3cccc(C(=O)O)c3OB2O)c2ncc(O)cc2F)C(=O)C1=O gave MIC of 32 to 64 µg/mL

GET /value?item= CS(=O)(=O)NCCN1CCN(C(=O)NC(C(=O)N[C@H]2Cc3cccc(C(=O)O)c3OB2O)c2ccc(O)c(O)c2Cl)C(=O)C1=O (stereo partly drawn) &field=MIC returns 2 to 4 µg/mL

// field: MIC; key: CCN1CCN(C(=O)N[C@H](C(=O)N[C@H]2Cc3cccc(C(=O)O)c3OB2O)c2ccc(S(N)(=O)=O)c(O)c2)C(=O)C1=O ; value = > 128 µg/mL

----------
Kindly state MIC for each of the entries shown.
System: A. baumannii ATCC 19606
Protocol details: Broth microdilution MIC, A. baumannii ATCC 19606
Type: cell-based
Conditions used: Acinetobacter baumannii, ATCC19606; A. baumannii ATCC 19606, broth microdilution; read-out: MIC A. baumannii ATCC 19606

So for CCN1CCN(C(=O)NC(C(=O)N[C@H]2Cc3ccc(F)c(C(=O)O)c3OB2O)c2ccc(S(N)(=O)=O)cc2)C(=O)C1=O (stereo partly drawn) , the logged MIC turned out to be > 128 µg/mL

Entry under test: CCN1C[C@H](CO)N(C(=O)NC(C(=O)N[C@H]2Cc3ccc(F)c(C(=O)O)c3OB2O)c2ccc(O)c(O)c2Cl)C(=O)C1=O (stereo partly drawn) . Its MIC was < 0.25 µg/mL

Looking up NCCN1CCN(C(=O)N[C@@H](C(=O)N[C@H]2Cc3cccc(C(=O)O)c3OB2O)c2ncc(O)cc2F)C(=O)C1=O , I found its MIC recorded as > 128 µg/mL

Consider NCCN1CCN(C(=O)N[C@H](C(=O)N[C@H]2Cc3ccc(F)c(C(=O)O)c3OB2O)c2ncc(O)cc2F)C(=O)C1=O . Its measured MIC is > 128 µg/mL

MIC in this record for CCN1CCN(C(=O)N[C@@H](C(=O)N[C@H]2Cc3ccc(F)c(C(=O)O)c3OB2O)c2ccsc2)C(=O)C1=O : > 128 µg/mL

For reference, reported MIC for CCN1CCN(C(=O)N[C@@H](C(=O)N[C@H]2Cc3cccc(C(=O)O)c3OB2O)c2ccc(S(N)(=O)=O)c(OC)c2)C(=O)C1=O stands at > 128 µg/mL
